Recorded MIC values for a group of compounds are listed next.
# System: Staphylococcus aureus
# assay info: Antimicrobial activity against methicillin-resistant Staphylococcus aureus 462/11 after 18 hrs by two-fold serial microdilution method
# Assay type: functional
# experimental conditions: 462/11, 18 h
property: MIC (µM)

| compound | measured target | result units | inequality symbol | measured result |
| --- | --- | --- | --- | --- |
| O=c1[nH]cc(F)c(=O)[nH]1 [FLUOROURACIL] | Staphylococcus aureus | µM | = | 7.69 |
| [N-]=[N+]=N[C@H]1C[C@H](n2cc(F)c(=O)[nH]c2=O)O[C@@H]1CO | Staphylococcus aureus | µM | = | 7.38 |
| CC[C@@H](C(=O)[C@@H](C)[C@@H](O)[C@H](C)[C@@H]1O[C@@H]([C@@H](CC)C(=O)OC[C@H]2O[C@@H](n3cc(F)c(=O)[nH]c3=O)C[C@@H]2O)CC[C@@H]1C)[C@H]1O[C@]2(C=C[C@@H](O)[C@]3(CC[C@@](C)([C@H]4CC[C@](O)(CC)[C@H](C)O4)O3)O2)[C@H](C)C[C@@H]1C | Staphylococcus aureus | µM | = | 32.7 |
| O=c1[nH]c(=O)n([C@H]2C[C@H](O)[C@@H](CO)O2)cc1F [FLOXURIDINE] | Staphylococcus aureus | µM | ≤ | 0.016 |
| CC[C@@H](C(=O)[C@@H](C)[C@@H](O)[C@H](C)[C@@H]1O[C@@H]([C@@H](CC)C(=O)NCc2cn([C@H]3C[C@H](n4cc(F)c(=O)[nH]c4=O)O[C@@H]3CO)nn2)CC[C@@H]1C)[C@H]1O[C@]2(C=C[C@@H](O)[C@]3(CC[C@@](C)([C@H]4CC[C@](O)(CC)[C@H](C)O4)O3)O2)[C@H](C)C[C@@H]1C | Staphylococcus aureus | µM | = | 60.4 |
| CC[C@@H](C(=O)[C@@H](C)[C@@H](O)[C@H](C)[C@@H]1O[C@@H]([C@@H](CC)C(=O)O)CC[C@@H]1C)[C@H]1O[C@]2(C=C[C@@H](O)[C@]3(CC[C@@](C)([C@H]4CC[C@](O)(CC)[C@H](C)O4)O3)O2)[C@H](C)C[C@@H]1C [SALINOMYCIN] | Staphylococcus aureus | µM | = | 2.66 |

---

# Test system: Staphylococcus epidermidis
# assay info: Antimicrobial activity against methicillin-resistant Staphylococcus epidermidis 488/11 after 18 hrs by two-fold serial microdilution method
# Format: functional
# experimental conditions: 488/11, 18 h
Param label: returns y when MIC < 3 µM, returns n otherwise, including exact equality.

| smiles code | cat |
| --- | --- |
| CC[C@@H](C(=O)[C@@H](C)[C@@H](O)[C@H](C)[C@@H]1O[C@@H]([C@@H](CC)C(=O)NCc2cn([C@H]3C[C@H](n4cc(F)c(=O)[nH]c4=O)O[C@@H]3CO)nn2)CC[C@@H]1C)[C@H]1O[C@]2(C=C[C@@H](O)[C@]3(CC[C@@](C)([C@H]4CC[C@](O)(CC)[C@H](C)O4)O3)O2)[C@H](C)C[C@@H]1C | n |
| [N-]=[N+]=N[C@H]1C[C@H](n2cc(F)c(=O)[nH]c2=O)O[C@@H]1CO | y |
| O=c1[nH]cc(F)c(=O)[nH]1 | y |
| CC[C@@H](C(=O)[C@@H](C)[C@@H](O)[C@H](C)[C@@H]1O[C@@H]([C@@H](CC)C(=O)OC[C@H]2O[C@@H](n3cc(F)c(=O)[nH]c3=O)C[C@@H]2O)CC[C@@H]1C)[C@H]1O[C@]2(C=C[C@@H](O)[C@]3(CC[C@@](C)([C@H]4CC[C@](O)(CC)[C@H](C)O4)O3)O2)[C@H](C)C[C@@H]1C | n |
| CC[C@@H](C(=O)[C@@H](C)[C@@H](O)[C@H](C)[C@@H]1O[C@@H]([C@@H](CC)C(=O)O)CC[C@@H]1C)[C@H]1O[C@]2(C=C[C@@H](O)[C@]3(CC[C@@](C)([C@H]4CC[C@](O)(CC)[C@H](C)O4)O3)O2)[C@H](C)C[C@@H]1C | y |
| O=c1[nH]c(=O)n([C@H]2C[C@H](O)[C@@H](CO)O2)cc1F | y |

---

# assay info: Antiproliferative activity against human SW707 cells assessed as growth inhibition after 72 hrs by SRB method
# Format: functional, cell-based
# experimental conditions: Homo sapiens, SW707, 72 h
property: IC50

| smiles code | property | measured result |
| --- | --- | --- |
| CC[C@@H](C(=O)[C@@H](C)[C@@H](O)[C@H](C)[C@@H]1O[C@@H]([C@@H](CC)C(=O)O)CC[C@@H]1C)[C@H]1O[C@]2(C=C[C@@H](O)[C@]3(CC[C@@](C)([C@H]4CC[C@](O)(CC)[C@H](C)O4)O3)O2)[C@H](C)C[C@@H]1C | IC50 | 1.73 µM |
| O=c1[nH]cc(F)c(=O)[nH]1 | IC50 | 20.5 µM |
| COc1cccc2c1C(=O)c1c(O)c3c(c(O)c1C2=O)C[C@@](O)(C(=O)CO)C[C@@H]3O[C@H]1C[C@H](N)[C@H](O)[C@H](C)O1 | IC50 | 0.18 µM |
| CC[C@@H](C(=O)[C@@H](C)[C@@H](O)[C@H](C)[C@@H]1O[C@@H]([C@@H](CC)C(=O)NCc2cn([C@H]3C[C@H](n4cc(F)c(=O)[nH]c4=O)O[C@@H]3CO)nn2)CC[C@@H]1C)[C@H]1O[C@]2(C=C[C@@H](O)[C@]3(CC[C@@](C)([C@H]4CC[C@](O)(CC)[C@H](C)O4)O3)O2)[C@H](C)C[C@@H]1C | IC50 | 35 µM |
| O=c1[nH]c(=O)n([C@H]2C[C@H](O)[C@@H](CO)O2)cc1F | IC50 | 23.9 µM |
| CC[C@@H](C(=O)[C@@H](C)[C@@H](O)[C@H](C)[C@@H]1O[C@@H]([C@@H](CC)C(=O)OC[C@H]2O[C@@H](n3cc(F)c(=O)[nH]c3=O)C[C@@H]2O)CC[C@@H]1C)[C@H]1O[C@]2(C=C[C@@H](O)[C@]3(CC[C@@](C)([C@H]4CC[C@](O)(CC)[C@H](C)O4)O3)O2)[C@H](C)C[C@@H]1C | IC50 | 1.99 µM |

---

Recorded pIC50 values for a group of compounds are listed next.
# assay info: Antiproliferative activity against human vincristine-resistant HL60/Vinc cells assessed as growth inhibition after 72 hrs by MTT assay
# Type: functional
# experimental conditions: Homo sapiens, HL60/vinc, 72 h
pIC50: −log10 of the molar value.

| compound | pIC50 |
| --- | --- |
| O=c1[nH]cc(F)c(=O)[nH]1 [FLUOROURACIL] | 4.67 |
| CC[C@@H](C(=O)[C@@H](C)[C@@H](O)[C@H](C)[C@@H]1O[C@@H]([C@@H](CC)C(=O)OC[C@H]2O[C@@H](n3cc(F)c(=O)[nH]c3=O)C[C@@H]2O)CC[C@@H]1C)[C@H]1O[C@]2(C=C[C@@H](O)[C@]3(CC[C@@](C)([C@H]4CC[C@](O)(CC)[C@H](C)O4)O3)O2)[C@H](C)C[C@@H]1C | 5.55 |
| [N-]=[N+]=N[C@H]1C[C@H](n2cc(F)c(=O)[nH]c2=O)O[C@@H]1CO | 3.53 |
| CC[C@@H](C(=O)[C@@H](C)[C@@H](O)[C@H](C)[C@@H]1O[C@@H]([C@@H](CC)C(=O)O)CC[C@@H]1C)[C@H]1O[C@]2(C=C[C@@H](O)[C@]3(CC[C@@](C)([C@H]4CC[C@](O)(CC)[C@H](C)O4)O3)O2)[C@H](C)C[C@@H]1C [SALINOMYCIN] | 5.68 |
| COc1cccc2c1C(=O)c1c(O)c3c(c(O)c1C2=O)C[C@@](O)(C(=O)CO)C[C@@H]3O[C@H]1C[C@H](N)[C@H](O)[C@H](C)O1 [DOXORUBICIN] | 6.06 |
| O=c1[nH]c(=O)n([C@H]2C[C@H](O)[C@@H](CO)O2)cc1F [FLOXURIDINE] | 4.76 |

---

# System: Staphylococcus aureus
# assay info: Antimicrobial activity against methicillin-resistant Staphylococcus aureus 585/12 after 18 hrs by two-fold serial microdilution method
# Assay type: functional
# experimental conditions: 585/12, 18 h
Recorded MIC values for a group of molecules are listed next.

| smiles code | measured target | inequality symbol | MIC (µM) |
| --- | --- | --- | --- |
| [N-]=[N+]=N[C@H]1C[C@H](n2cc(F)c(=O)[nH]c2=O)O[C@@H]1CO | Staphylococcus aureus | = | 3.69 |
| CC[C@@H](C(=O)[C@@H](C)[C@@H](O)[C@H](C)[C@@H]1O[C@@H]([C@@H](CC)C(=O)NCc2cn([C@H]3C[C@H](n4cc(F)c(=O)[nH]c4=O)O[C@@H]3CO)nn2)CC[C@@H]1C)[C@H]1O[C@]2(C=C[C@@H](O)[C@]3(CC[C@@](C)([C@H]4CC[C@](O)(CC)[C@H](C)O4)O3)O2)[C@H](C)C[C@@H]1C | Staphylococcus aureus | = | 121 |
| O=c1[nH]c(=O)n([C@H]2C[C@H](O)[C@@H](CO)O2)cc1F | Staphylococcus aureus | ≤ | 0.016 |
| O=c1[nH]cc(F)c(=O)[nH]1 | Staphylococcus aureus | = | 3.85 |
| CC[C@@H](C(=O)[C@@H](C)[C@@H](O)[C@H](C)[C@@H]1O[C@@H]([C@@H](CC)C(=O)O)CC[C@@H]1C)[C@H]1O[C@]2(C=C[C@@H](O)[C@]3(CC[C@@](C)([C@H]4CC[C@](O)(CC)[C@H](C)O4)O3)O2)[C@H](C)C[C@@H]1C | Staphylococcus aureus | = | 2.66 |
| CC[C@@H](C(=O)[C@@H](C)[C@@H](O)[C@H](C)[C@@H]1O[C@@H]([C@@H](CC)C(=O)OC[C@H]2O[C@@H](n3cc(F)c(=O)[nH]c3=O)C[C@@H]2O)CC[C@@H]1C)[C@H]1O[C@]2(C=C[C@@H](O)[C@]3(CC[C@@](C)([C@H]4CC[C@](O)(CC)[C@H](C)O4)O3)O2)[C@H](C)C[C@@H]1C | Staphylococcus aureus | = | 16.3 |
